- Test system: Shattercane (SHCA)
- Format: in vivo
- TEST CONTEXT: in vivo
MEASURE: % Inhibition 13 DAP SHCA (%)
Use % as the unit, but write only the number.

Sample records with % Inhibition 13 DAP SHCA:
MOLECULE	ASSAYED TARGET	% Inhibition 13 DAP SHCA / %
CCOC(=O)c1cnoc1-c1ccc(Cl)cc1Cl	Shattercane (SHCA)	95
C=CCC(C)(C#N)Sc1ccc(C)cc1 (centres unmarked)	Shattercane (SHCA)	80
CC1(C)OC(c2ccco2)CN1C(=O)C(Cl)Cl (centres unmarked)	Shattercane (SHCA)	75
N#CCOc1ccc(Cl)c2cccnc12	Shattercane (SHCA)	90

Query: Param item = `COC(=O)COC(c1ccccc1)c1ccccc1` ; retrieve measured % Inhibition 13 DAP SHCA.
Response: 75

Query: Next up: `Clc1cc(Cl)nc(-c2ccccc2)n1`
Response: 80

Query: Next up: CC1CN(C(=O)C(Cl)Cl)C(C)(C)O1 (centres unmarked)
Response: 80

Query: Next up: COc1ccc(OC)c(C(=O)CC2OC(=O)c3ccccc32)c1 (centres unmarked)
Response: 90

Query: Next up: `C=CCN(CC=C)C(=O)C(Cl)Cl`
Response: 85

Query: Next up: CC(N=C1SCC(=C(Cl)Cl)S1)c1ccccc1 (centres unmarked)
Response: 65

Query: Next up: `C=CCSC(=S)N(C)c1ccccc1`
Response: 85

====

- Tested on: Velvetleaf (VELE)
- Type: in vivo, Abutilon theophrasti
- TEST CONTEXT: […]; observed 7 days after POE (Table 36)
MEASURE: % Inhibition VELE (%)
Use % as the unit, but write only the number.

Sample records with % Inhibition VELE:
MOLECULE	% Inhibition VELE [%]
CCOC(=O)c1sc(I)nc1C(F)(F)F	70
CCCCCCOC(=O)c1sc(Cl)nc1C(F)(F)F	60
C=CCC(C)(C#N)Sc1ccc(C(C)C)cc1 (stereo not drawn)	75
Cc1csc(=NC(C)c2ccccc2)s1 (stereo not drawn)	70

Query: Param item = `CCOC(=O)c1sc(Cl)nc1C(F)(F)F` ; retrieve measured % Inhibition VELE.
Response: 65

Query: Next up: `CC(C)(C)c1ccccc1SCCC#N`
Response: 70

====

- System: Corn
- TEST CONTEXT: […]; PPI; 13 days after PPI (Table 31)
MEASURE: % Inhibition Corn (%)
Use % as the unit, but write only the number.

Sample records with % Inhibition Corn:
MOLECULE	UNIT ANNOTATION	TEST VALUE
Cc1ccn2nc(S(=O)(=O)Nc3c(F)cccc3F)nc2n1 [Herbicide No. 21, reference compound]	%	70
CC1(C)OC(c2cccs2)CN1C(=O)C(Cl)Cl (stereo not shown) [compound 22]	%	45
O=C(C(Cl)Cl)N1CCc2ccccc2C1c1ccccc1 (stereo not shown) [compound 40]	%	60
O=C(C(Cl)Cl)N1CCCC12CCCC2 [compound 19]	%	55
CC1(C)OC(Cc2ccccc2)CN1C(=O)C(Cl)Cl (stereo not shown) [compound 34]	%	35
CC1Cc2ccccc2C(C)N1C(=O)C(Cl)Cl (stereo not shown) [compound 26]	%	65

Query: Param item = O=C(C(Cl)Cl)N1CCN(C(=O)C(Cl)Cl)CC1 [compound 3] ; retrieve measured % Inhibition Corn.
Response: 55

Query: Next up: CC1(C)OC(c2cccnc2)CN1C(=O)C(Cl)Cl (stereo not shown) [compound 27]
Response: 30

Query: Next up: C[n+]1cccc(C2CN(C(=O)C(Cl)Cl)C(C)(C)O2)c1 (stereo not shown) [compound 37]
Response: 60

Query: Next up: CCC1c2ccccc2CCN1C(=O)C(Cl)Cl (stereo not shown) [compound 39]
Response: 50

====

- Test system: Corn
- TEST CONTEXT: […]; PPI; 13 days after PPI (Table 31)
% Inhibition Corn values by entry
Note to self: number, then unit, no commentary.

COMPOUND	ASSAYED TARGET	% Inhibition Corn
CC1(C)OC(c2cc3ccccc3o2)CN1C(=O)C(Cl)Cl (centres unmarked)	Corn	50%
CC1(C)OC(c2ccco2)CN1C(=O)C(Cl)Cl (centres unmarked)	Corn	25%

Query: Param item = Cn1cccc1C1CN(C(=O)C(Cl)Cl)C(C)(C)O1 (centres unmarked) ; retrieve measured % Inhibition Corn.
Response: 40%

Query: Next up: O=C(C(Cl)Cl)N1CC(c2ccco2)OC1c1ccccc1 (centres unmarked)
Response: 60%

Query: Next up: CC(C)CC1c2ccccc2CCN1C(=O)C(Cl)Cl (centres unmarked)
Response: 60%

====

- Test system: Shattercane (SHCA)
- Format: in vivo
- TEST CONTEXT: Antidote 4.48 + Biocide No. 1 8.96 Kg/Ha PPI, Herb. No. 8 0.07 POE; 13 DAP
MEASURE: % Inhibition 13 DAP SHCA (%)
Use % as the unit, but write only the number.

MOLECULE	ASSAYED TARGET	UNIT ANNOTATION	% Inhibition 13 DAP SHCA
C=CCN(CC=C)C(=O)C(Cl)Cl	Shattercane (SHCA)	%	85
N#CCOc1ccc(Cl)c2cccnc12	Shattercane (SHCA)	%	90
Clc1cc(Cl)nc(-c2ccccc2)n1	Shattercane (SHCA)	%	80

Query: Param item = `COC(=O)COC(c1ccccc1)c1ccccc1` ; retrieve measured % Inhibition 13 DAP SHCA.
Response: 80

Query: Next up: `C=CCSC(=S)N(C)c1ccccc1`
Response: 80

Query: Next up: CC1CN(C(=O)C(Cl)Cl)C(C)(C)O1 (stereo not drawn)
Response: 90

====

- Test system: Corn
- TEST CONTEXT: […]; observed 9 days later (Table 29)
% Inhibition Corn values by entry
Use % as the unit, but write only the number.

Sample records with % Inhibition Corn:
MOLECULE	MEASURE	TEST VALUE
O=C(C(Cl)Cl)N1CCN(C(=O)C(Cl)Cl)CC1 [compound 3]	% Inhibition Corn	35
CC1(C)OC(Cc2ccccc2)CN1C(=O)C(Cl)Cl (centres unmarked) [compound 34]	% Inhibition Corn	15
CC1(C)OC(c2cccnc2)CN1C(=O)C(Cl)Cl (centres unmarked) [compound 27]	% Inhibition Corn	25
CC1Cc2ccccc2C(C)N1C(=O)C(Cl)Cl (centres unmarked) [compound 26]	% Inhibition Corn	40

Query: Which measured % Inhibition Corn belongs to CC1(C)OC(c2ccco2)CN1C(=O)C(Cl)Cl (centres unmarked) [compound 1] , tested on Corn?
Response: 10

====

% Inhibition Corn values by entry
- Test system: Corn
- TEST CONTEXT: […]; observed 9 days later (Table 29)
Use % as the unit, but write only the number.

COMPOUND	ASSAYED TARGET	% Inhibition Corn / %
CCC1c2ccccc2CCN1C(=O)C(Cl)Cl (stereo not drawn)	Corn	25

Query: Param item = `O=C(C(Cl)Cl)N1CCCC12CCCC2` ; retrieve measured % Inhibition Corn.
Response: 20

Query: Next up: O=C(C(Cl)Cl)N1CCc2ccccc2C1c1ccccc1 (stereo not drawn)
Response: 45

Query: Next up: CC1(C)OC(c2cccs2)CN1C(=O)C(Cl)Cl (stereo not drawn)
Response: 20

Query: Next up: C[n+]1cccc(C2CN(C(=O)C(Cl)Cl)C(C)(C)O2)c1 (stereo not drawn)
Response: 65

Query: Next up: CC(C)CC1c2ccccc2CCN1C(=O)C(Cl)Cl (stereo not drawn)
Response: 25

Query: Next up: Cn1cccc1C1CN(C(=O)C(Cl)Cl)C(C)(C)O1 (stereo not drawn)
Response: 20

Query: Next up: O=C(C(Cl)Cl)N1CC(c2ccco2)OC1c1ccccc1 (stereo not drawn)
Response: 45

Query: Next up: CC1(C)OC(c2cc3ccccc3o2)CN1C(=O)C(Cl)Cl (stereo not drawn)
Response: 20

====

% Inhibition VELE values by entry
- System: Velvetleaf (VELE)
- Format: in vivo, Abutilon theophrasti
- TEST CONTEXT: […]; observed 7 days after POE (Table 36)
Note to self: number, then unit, no commentary.

Sample records with % Inhibition VELE:
MOLECULE	% Inhibition VELE
CCOC(=O)c1sc(Br)nc1C(F)(F)F	60%
Cc1ccc(SC2(C#N)CC2)cc1C	70%
CC(Cl)C(=O)Nc1nc(C(F)(F)F)c(I)s1 (centres unmarked)	70%
CCCCCCCCOC(=O)c1sc(Cl)nc1C(F)(F)F	65%
COC(=O)ON=C(N)COc1cccc2cccnc12	70%

Query: Param item = `O=C(O)COc1cc(C(F)(F)F)cc(C(F)(F)F)c1` ; retrieve measured % Inhibition VELE.
Response: 75%

Query: Next up: `[O-][n+]1ccccc1Sc1nc(Cl)c(Cl)c(Cl)c1Cl`
Response: 85%

Query: Next up: `CCCCOC(=O)c1sc(Cl)nc1C(F)(F)F`
Response: 65%

Query: Next up: O=C(O)c1sc(Cl)nc1C(F)(F)F [compound 68]
Response: 60%

Query: Next up: `O=C(Oc1ccccc1)c1sc(Cl)nc1C(F)(F)F`
Response: 70%

Query: Next up: O=C(O)c1sc(Cl)nc1C(F)(F)F [compound 65]
Response: 65%
